# TARGET_ENTITY: GDP-bound KRAS wild-type protein (Homo sapiens, UniProt P01116)
# Sequence (P01116 whole entry): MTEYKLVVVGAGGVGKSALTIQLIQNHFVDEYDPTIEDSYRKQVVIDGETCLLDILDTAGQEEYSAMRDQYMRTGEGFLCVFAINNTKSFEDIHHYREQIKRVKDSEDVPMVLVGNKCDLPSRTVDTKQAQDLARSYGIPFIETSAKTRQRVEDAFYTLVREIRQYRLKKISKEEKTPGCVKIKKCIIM
# ASSAY_DETAILS: Binding to KRAS by surface plasmon resonance (SPR), Single Cycle Kinetics
# RECORDED_CONDITIONS: SPR, Single Cycle Kinetics, 1:1 binding model; GDP-bound KRAS wild-type protein; read-out: KRAS KD
Threshold 80 pM. Kd below it: Yes. Kd at it or above: No.

Task: Does CCO[C@@H]1C[C@H]2C(=O)NC3(CCC3)C(=O)N(C)[C@@H](C3CCCC3)C(=O)N(C)[C@H](C3CCCCC3)CC(=O)N(C)[C@@H](COC)C(=O)N[C@@H]([C@@H](C)CC)C(=O)N(C)CC(=O)N(C)[C@H]3C/C=C\CCN(C3=O)[C@@H](Cc3ccc(C(F)(F)F)cc3)C(=O)N(C)CC(=O)N[C@@H](CCc3cc(F)c(C(F)(F)F)c(F)c3)C(=O)N2C1 [PP1584] have Kd strictly under 80 pM?
Result: No

Task: Bench note: check whether CC[C@H](C)[C@@H]1NC(=O)[C@H](CC2CCCC2)N(C)C(=O)C[C@@H](C(=O)N(C)C)N(C)C(=O)[C@H](C2CCCC2)N(C)C(=O)C2(CCC2)NC(=O)[C@@H]2C[C@@H](F)CN2C(=O)[C@H](CCc2cc(F)c(C(F)(F)F)c(F)c2)NC(=O)CN(C)C(=O)[C@H](Cc2ccc(C(F)(F)F)cc2)N2CC/C=C\C[C@@H](C2=O)N(C)C(=O)CN(C)C1=O [PP1502] shows Kd below 80 pM
Result: Yes

Task: Is 80 pM strictly greater than the compound's reported Kd? compound: CCO[C@@H]1C[C@H]2C(=O)NC3(CCC3)C(=O)N(C)[C@@H](C3CCCC3)C(=O)N(C)[C@H](C(=O)N(C)C)CC(=O)N(C)[C@@H](CC3CC3)C(=O)N[C@@H]([C@@H](C)CC)C(=O)N(C)CC(=O)N(C)[C@H]3C/C=C\CCN(C3=O)[C@@H](Cc3ccc(C)cc3)C(=O)N(C)CC(=O)N[C@@H](CCc3ccc(Cl)c(Cl)c3)C(=O)N2C1 [PP1485]
Result: No

---

# Test system: human lung cancer strain NCI-H441;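 note: cell proliferation inhibition after four days measured by CellTiter-Glo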
Where a SMILES comes first, the peptide text is derived from it. Bridges are numbered along the chain shown (N, C = ends). [ ]: non-standard residue; d: D form. The star is where a group is joined. hPhe(3-Cl-4-CF3) = N[C@@H](CCc1ccc(C(F)(F)F)c(Cl)c1)C(=O)O; NPrPhe(4-CF3) = CCCN[C@@H](Cc1ccc(C(F)(F)F)cc1)C(=O)O; NMeGly(cPent) = CN[C@H](C(=O)O)C1CCCC1; Hyp = O=C(O)[C@@H]1C[C@@H](O)CN1; NMeD = CN[C@@H](CC(=O)O)C(=O)O; NMeL = CN[C@@H](CC(C)C)C(=O)O; Morpholide = C1CN(*)CCO1; Ac5c = NC1(C(=O)O)CCCC1; Aze = O=C(O)[C@@H]1CCN1; Sar = CNCC(=O)O
ASSAY_METRIC: IC50
// return the numeric value with its unit appended

Task: Item under review: CCCN1C(=O)CN(C)C(=O)[C@@H]2CCN2C(=O)[C@H]([C@@H](C)CC)NC(=O)[C@H](CC(C)C)N(C)C(=O)C[C@@H](C(=O)N2CCOCC2)N(C)C(=O)[C@H](C2CCCC2)N(C)C(=O)C2(CCCC2)NC(=O)[C@@H]2C[C@@H](OC)CN2C(=O)[C@H](CCc2ccc(C(F)(F)F)c(Cl)c2)NC(=O)CN(C)C(=O)[C@@H]1Cc1ccc(C(F)(F)F)cc1 [PP0309] ([NMeL]I[Aze][Sar][NPrPhe(4-CF3)][Sar][hPhe(3-Cl-4-CF3)][Hyp](Me)[Ac5c][NMeGly(cPent)][NMeD]-Morpholide; lactam N-11) . Reported IC50?
Result: 11.7 nM

---

Please respond with reported pKd for every item in the list.
# TARGET_ENTITY: GDP-bound KRAS wild-type protein (Homo sapiens, UniProt P01116)
# ASSAY_DETAILS: Binding to KRAS by surface plasmon resonance (SPR), Single Cycle Kinetics
# RECORDED_CONDITIONS: SPR Single Cycle Kinetics, GDP-bound KRAS wild-type protein, 1:1 binding model; read-out: KRAS KD
Where a SMILES comes first, the peptide text is derived from it. Bridges are numbered along the chain shown (N, C = ends). [ ]: non-standard residue; d: D form. The star is where a group is joined. hPhe(3,5-F2-4-CF3) = N[C@@H](CCc1cc(F)c(C(F)(F)F)c(F)c1)C(=O)O; hPhe(3-Cl-4-CF3) = N[C@@H](CCc1ccc(C(F)(F)F)c(Cl)c1)C(=O)O; NPrPhe(4-CF3) = CCCN[C@@H](Cc1ccc(C(F)(F)F)cc1)C(=O)O; NMeGly(cPent) = CN[C@H](C(=O)O)C1CCCC1; Pro(4,4-F2) = O=C(O)[C@@H]1CC(F)(F)CN1; cisHyp = O=C(O)[C@@H]1C[C@H](O)CN1; Hyp = O=C(O)[C@@H]1C[C@@H](O)CN1; NMeD = CN[C@@H](CC(=O)O)C(=O)O; NMeL = CN[C@@H](CC(C)C)C(=O)O; αMeS = C[C@](N)(CO)C(=O)O; Morpholide = C1CN(*)CCO1; NMeA = CN[C@@H](C)C(=O)O; Ac5c = NC1(C(=O)O)CCCC1; Aze = O=C(O)[C@@H]1CCN1; Ac4c = NC1(C(=O)O)CCC1; Sar = CNCC(=O)O; tBu = CC(C)(C)*
Lab note — pKd values are minus log10 of concentrations in M.

Task: // pKd lookup, key: CCCN1C(=O)CN(C)C(=O)CN(C)C(=O)[C@H]([C@@H](C)CC)NC(=O)[C@H](CC(C)C)N(C)C(=O)C[C@@H](C(=O)N2CCOCC2)N(C)C(=O)[C@H](C2CCCC2)N(C)C(=O)[C@](C)(COC(C)(C)C)NC(=O)[C@@H]2CCCN2C(=O)[C@H](CCc2cc(F)c(C(F)(F)F)c(F)c2)NC(=O)CN(C)C(=O)[C@@H]1Cc1ccc(C(F)(F)F)cc1 [PP0764] ([NMeL]I[Sar][Sar][NPrPhe(4-CF3)][Sar][hPhe(3,5-F2-4-CF3)]P[αMeS](tBu)[NMeGly(cPent)][NMeD]-Morpholide; lactam N-11)
Result: 8.47

Task: Quick one: pKd of CCCN1C(=O)[C@@H]2CCN2C(=O)[C@H](C)N(C)C(=O)[C@H]([C@@H](C)CC)NC(=O)[C@H](CC(C)C)N(C)C(=O)C[C@@H](C(=O)N2CCOCC2)N(C)C(=O)[C@H](C2CCCC2)N(C)C(=O)C2(CCCC2)NC(=O)[C@@H]2C[C@H](OCC)CN2C(=O)[C@H](CCc2ccc(C(F)(F)F)c(Cl)c2)NC(=O)CN(C)C(=O)[C@@H]1Cc1ccc(C(F)(F)F)cc1 [PP0242] ([NMeL]I[NMeA][Aze][NPrPhe(4-CF3)][Sar][hPhe(3-Cl-4-CF3)][cisHyp](Et)[Ac5c][NMeGly(cPent)][NMeD]-Morpholide; lactam N-11) ?
Result: 9.70

Task: Which pKd is listed for CCCN1C(=O)CN(C)C(=O)[C@@H]2CCN2C(=O)[C@H]([C@@H](C)CC)NC(=O)[C@H](CC(C)C)N(C)C(=O)C[C@@H](C(=O)N2CCOCC2)NC(=O)[C@H](C2CCCC2)N(C)C(=O)C2(CCCC2)NC(=O)[C@@H]2CC(F)(F)CN2C(=O)[C@H](CCc2ccc(C(F)(F)F)c(Cl)c2)NC(=O)CN(C)C(=O)[C@@H]1Cc1ccc(C(F)(F)F)cc1 [PP0339] ([NMeL]I[Aze][Sar][NPrPhe(4-CF3)][Sar][hPhe(3-Cl-4-CF3)][Pro(4,4-F2)][Ac5c][NMeGly(cPent)]D-Morpholide; lactam N-11) ?
Result: 8.30

Task: Returns the measured pKd for the input compound. Input: CCC[C@H]1C(=O)N[C@@H]([C@@H](C)CC)C(=O)N(C2CC2)CC(=O)N(C)[C@H]2C/C=C\CCN(C2=O)[C@@H](Cc2ccc(C)cc2)C(=O)N(C)CC(=O)N[C@@H](CCc2ccc(Cl)c(Cl)c2)C(=O)N2C[C@H](OCC)C[C@H]2C(=O)NC2(CC(C)(C)C2)C(=O)N(C)[C@@H](CC2CCC2)C(=O)N(C)[C@H](C(=O)N(C)C)CC(=O)N1C
Result: 8.55

Task: // lookup pKd for CCCN1C(=O)[C@@H]2CCN2C(=O)CN(C)C(=O)[C@H]([C@@H](C)CC)NC(=O)[C@H](CC(C)C)N(C)C(=O)C[C@@H](C(=O)N(C)C)N(C)C(=O)[C@H](C2CCCC2)N(C)C(=O)C2(CCC2)NC(=O)[C@@H]2C[C@@H](OCC)CN2C(=O)[C@H](CCc2ccc(C(F)(F)F)c(Cl)c2)NC(=O)CN(C)C(=O)[C@@H]1Cc1ccc(C(F)(F)F)cc1 [PP0445] ([NMeL]I[Sar][Aze][NPrPhe(4-CF3)][Sar][hPhe(3-Cl-4-CF3)][Hyp](Et)[Ac4c][NMeGly(cPent)][NMeD]-NMe2; lactam N-11)
Result: 10.60
